assay: Transmission electron microscope (negative staining) of peptide assemblies; conditions: TEM, negative staining with uranyl acetate, 120 kV; line of the table gives 120 mM
Where a SMILES comes first, the peptide text is derived from it.
test readout: Morphology

>  <compound>
N[C@@H](CO)C(=O)N[C@@H](CO)C(=O)N[C@@H](CO)C(=O)N[C@@H](CO)C(=O)O [SSSS] (H-SSSS-OH)

>  <assay result>
blank

$$$$
>  <compound>
N[C@@H](CCC(=O)O)C(=O)N[C@@H](CCC(=O)O)C(=O)N[C@@H](CCC(=O)O)C(=O)N[C@@H](CCC(=O)O)C(=O)O [EEEE] (H-EEEE-OH)

>  <assay result>
sheet

$$$$
